This listing pairs compounds with measured IC50.
Target: human cloned 5-HT2C receptor, expressed in CHO cells (Homo sapiens, UniProt P28335)
Construct: expressed in transfected cells; host or cells: CHO cells
Sequence (P28335 33-458): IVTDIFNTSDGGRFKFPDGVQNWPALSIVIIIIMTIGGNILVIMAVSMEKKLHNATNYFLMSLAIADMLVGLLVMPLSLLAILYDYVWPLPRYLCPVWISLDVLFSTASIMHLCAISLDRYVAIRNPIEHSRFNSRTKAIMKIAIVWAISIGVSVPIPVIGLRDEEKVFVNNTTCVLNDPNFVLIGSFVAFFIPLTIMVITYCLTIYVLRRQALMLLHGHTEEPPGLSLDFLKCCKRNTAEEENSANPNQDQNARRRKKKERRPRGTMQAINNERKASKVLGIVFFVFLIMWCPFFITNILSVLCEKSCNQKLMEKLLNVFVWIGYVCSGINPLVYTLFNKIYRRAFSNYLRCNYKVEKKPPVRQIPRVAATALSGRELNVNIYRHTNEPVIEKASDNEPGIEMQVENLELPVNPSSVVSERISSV
Experiment: In vitro radioligand binding affinity for 5-HT2C receptor ([3H]mesulergine)
Quick note: give the figure in nM, leave out the unit.

For record CN1CCN2[C@H](C[C@@H]3c4ccccc4Cc4ccc(F)cc4[C@H]32)C1 [14a] the listed IC50 is 0.891

Reported IC50 ( O=C1CNC[C@H]2C[C@@H]3c4ccccc4Cc4ccc(F)cc4[C@H]3N12 [compound 12] ) = 58.9

---

biological target: NET (Rattus norvegicus); construct: Cortex from rat brain was collected and homogenised; test: In vitro determination of NET reuptake inhibition ([3H]Nixosetine binding, rat brain cortex membranes)
Sequence (Q9WTR4 1-597): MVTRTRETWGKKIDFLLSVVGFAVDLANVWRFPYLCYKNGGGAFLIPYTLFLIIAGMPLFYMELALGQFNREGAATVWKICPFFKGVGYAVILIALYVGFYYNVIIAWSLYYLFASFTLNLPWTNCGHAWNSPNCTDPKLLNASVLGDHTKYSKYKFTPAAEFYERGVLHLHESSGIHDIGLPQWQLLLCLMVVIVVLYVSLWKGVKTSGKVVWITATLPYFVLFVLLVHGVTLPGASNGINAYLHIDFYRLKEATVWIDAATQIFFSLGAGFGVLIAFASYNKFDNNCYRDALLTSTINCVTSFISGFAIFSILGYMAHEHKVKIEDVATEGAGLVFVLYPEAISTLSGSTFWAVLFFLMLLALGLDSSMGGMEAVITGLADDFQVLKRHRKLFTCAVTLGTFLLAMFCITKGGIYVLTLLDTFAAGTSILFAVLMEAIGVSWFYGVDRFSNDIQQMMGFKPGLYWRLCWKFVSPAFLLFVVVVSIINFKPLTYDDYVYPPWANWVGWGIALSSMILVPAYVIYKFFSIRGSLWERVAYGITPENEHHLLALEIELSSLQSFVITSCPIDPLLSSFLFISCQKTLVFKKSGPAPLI
Readout kind: pIC50
In textbook form, pIC50 equals minus log to base ten of the concentration in mol/L.

A selection of reference data follows.
| Compound | pIC50 |
| --- | --- |
| CN(C)CC1CO[C@H]2c3cc(F)ccc3Cc3ccccc3[C@@H]12 (mixture of isomers) | 6.65 |
| CN1C[C@H]2C[C@@H]3c4ccccc4Cc4ccc(F)cc4[C@H]3N2C1=O | 6.05 |

NET (Rattus norvegicus) data for N[C@@H]1CO[C@H]2c3cc(F)ccc3Cc3ccccc3[C@H]2C1 ; its pIC50: 6.52

---

target: NET (Rattus norvegicus); construct: Cortex from rat brain was collected and homogenised; from tissue; host or cells: rat brain cortex membranes; assay: In vitro determination of NET reuptake inhibition ([3H]Nixosetine binding, rat brain cortex membranes)
# NET Reuptake Inhibition >= 6 gives Yes, anything below gives No

Previously resolved entries follow.
| Compound | Qualitative label |
| --- | --- |
| Fc1ccc2c(c1)[C@@H]1[C@H](C[C@@H]3CNC(=S)N31)c1ccccc1C2 [compound 8] | No |
| CN1CCN2[C@H](C[C@@H]3c4ccccc4Cc4ccc(F)cc4[C@H]32)C1 [14a] | No |
| CN1CC(=O)N2[C@H](C[C@@H]3c4ccccc4Cc4ccc(F)cc4[C@H]32)C1 [compound 13] | No |

Enquiry: Textbook exercise: given the entry CN(C)C[C@H]1C[C@@H]2c3ccccc3Cc3ccc(F)cc3[C@H]2N1C=O [36c] , state whether its NET Reuptake Inhibition is greater than or equal to 6.
Return: Yes

Enquiry: Assess whether reported NET Reuptake Inhibition for CN1CC(=O)N2[C@@H](C[C@@H]3c4ccccc4Cc4ccc(F)cc4[C@H]32)C1 [compound 4] sits at 6 or higher.
Return: No

Enquiry: Check the entry Fc1ccc2c(c1)[C@@H]1[C@H](C[C@H]3CNC(=S)N31)c1ccccc1C2 [compound 3] : does NET Reuptake Inhibition equal or exceed 6?
Return: No
